Reported pIC50 for target or system human USP21 (Homo sapiens), by entry.
pIC50: −log10 of the molar value.

compound="CC(c1cccc2ccccc12)N1CCC(C(=O)NCc2cccc(F)c2)CC1 (centres unmarked)" system_tested="human USP21 (Homo sapiens)" test_value="< 4.01"

// moving on: another record for pIC50
Recorded pIC50 (compound COc1cc(CNC(=O)C2CCN(C(C)c3cccc4ccccc34)CC2)ccn1 (centres unmarked) ): < 4.01

###

system_tested: SARS-CoV-2 PLpro (Severe acute respiratory syndrome coronavirus 2)
assay_info: biochemical
Type: binding
test_context: KD Exp3, SARS-CoV-2 PLpro WT
parameter_measured: pKd
One number for each entry, as −log10 of the molar value.

These recorded examples may help you get a feel for the data.
compound="C[C@H](c1cccc2ccccc12)N1CCC(C(=O)NCc2cccc(F)c2)CC1 [Compound 3k]" system_tested="SARS-CoV-2 PLpro (Severe acute respiratory syndrome coronavirus 2)" parameter_measured=pKd test_value=5.55
compound="COc1cc(CNC(=O)C2CCN([C@H](C)c3cccc4ccccc34)CC2)ccn1 [Compound 5c]" system_tested="SARS-CoV-2 PLpro (Severe acute respiratory syndrome coronavirus 2)" parameter_measured=pKd test_value=5.59

Recorded pKd (compound COc1cc(CNC(=O)C2CCN(C(C)c3ccc(OC)c4ccccc34)CC2)ccn1 (stereo not drawn) [Compound 9] ): 5.63
